test system: 817829-284-R-J1-PDC complex spheroid viability; test: Anticancer human tumor 817829-284-R-J1-PDC patient-derived colon adenocarcinoma cell line growth inhibition [POLQ]; conditions: second compound 0.316 µM; first compound 0.0316 µM; active = viability on the fitted dose curve at most 10% of control; inactive = the rest
Classes used: active, inactive

1. Nc1ccn(C2OC(CO)C(O)C2(F)F)c(=O)n1 (stereo not given) + Nc1ccc(C#CCN(C(=O)Cc2ncc(C(F)(F)F)cc2C(F)(F)F)c2ccc(F)cc2)nn1	active
2. C=CCn1c(=O)c2cnc(Nc3ccc(N4CCN(C)CC4)cc3)nc2n1-c1cccc(C(C)(C)O)n1 + Cc1cccc(N(C)C(=O)C2C(O)CCN2c2nc(C)cc(C(F)(F)F)c2C#N)c1	inactive
3. CC(C)n1c(=O)n(C)c2cnc3cc(F)c(-c4ccc(OCCCN5CCCCC5)nc4)cc3c21 + Nc1ccc(C#CCN(C(=O)Cc2ncc(C(F)(F)F)cc2C(F)(F)F)c2ccc(F)cc2)nn1	inactive
4. CC1COCCN1c1cc(C2(S(C)(=N)=O)CC2)nc(-c2ccnc3[nH]ccc23)n1 (stereo not given) + COC1C(OC(N)=O)C(O)C(Oc2ccc3c(O)c(NC(=O)c4ccc(O)c(CC=C(C)C)c4)c(=O)oc3c2C)OC1(C)C	inactive
5. COc1cccc(OCCCN)c1-c1cc(Nc2cnc(C#N)cn2)n[nH]1 + COC1C(OC(N)=O)C(O)C(Oc2ccc3c(O)c(NC(=O)c4ccc(O)c(CC=C(C)C)c4)c(=O)oc3c2C)OC1(C)C	active

====

Measured log10 of IC50 values are reported for all entries that follow.
test system: 817829-284-R-J1-PDC complex spheroid viability; test: Anticancer human tumor 817829-284-R-J1-PDC cell line growth inhibition [POLQ]; settings: curve of first compound; second compound 1 µM;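 also: spheroids exposed to compounds for 7 days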
recordedEndpoint: log10 of IC50 (log10 of the value in nM)

1. CC1COCCN1c1cc(C2(S(C)(=N)=O)CC2)nc(-c2ccnc3[nH]ccc23)n1 (stereo not given) + Cc1cccc(N(C)C(=O)C2C(O)CCN2c2nc(C)cc(C(F)(F)F)c2C#N)c1	2.53
2. O=C(c1cc(Cc2n[nH]c(=O)c3ccccc23)ccc1F)N1CCN(C(=O)C2CC2)CC1 + COC1C(OC(N)=O)C(O)C(Oc2ccc3c(O)c(NC(=O)c4ccc(O)c(CC=C(C)C)c4)c(=O)oc3c2C)OC1(C)C	3.63
3. CC1COCCN1c1cc(-c2ccnn2C)c2ccnc(-c3ccn[nH]3)c2n1 (stereo not given) + Nc1ccc(C#CCN(C(=O)Cc2ncc(C(F)(F)F)cc2C(F)(F)F)c2ccc(F)cc2)nn1	1.69
4. C=CCn1c(=O)c2cnc(Nc3ccc(N4CCN(C)CC4)cc3)nc2n1-c1cccc(C(C)(C)O)n1 + Nc1ccc(C#CCN(C(=O)Cc2ncc(C(F)(F)F)cc2C(F)(F)F)c2ccc(F)cc2)nn1	2.41
5. C#Cc1c(F)ccc2cc(O)cc(-c3ncc4c(N5CC6CCC(C5)N6)nc(OCC56CCCN5CC(F)C6)nc4c3F)c12 (stereo not given) + Cc1cccc(N(C)C(=O)C2C(O)CCN2c2nc(C)cc(C(F)(F)F)c2C#N)c1	3.86
6. CC1COCCN1c1cc(C2(S(C)(=N)=O)CC2)nc(-c2ccnc3[nH]ccc23)n1 (stereo not given) + COC1C(OC(N)=O)C(O)C(Oc2ccc3c(O)c(NC(=O)c4ccc(O)c(CC=C(C)C)c4)c(=O)oc3c2C)OC1(C)C	2.64
7. CC1COCCN1c1cc(C2(S(C)(=N)=O)CC2)nc(-c2ccnc3[nH]ccc23)n1 (stereo not given) + Nc1ccc(C#CCN(C(=O)Cc2ncc(C(F)(F)F)cc2C(F)(F)F)c2ccc(F)cc2)nn1	2.69
8. C=CC(=O)N1CCN(c2nc(=O)n(-c3c(C)ccnc3C(C)C)c3nc(-c4c(O)cccc4F)c(F)cc23)C(C)C1 (stereo not given) + Cc1cccc(N(C)C(=O)C2C(O)CCN2c2nc(C)cc(C(F)(F)F)c2C#N)c1	3.89
9. O=C(Nc1ccc(O)c(NS(=O)(=O)c2ccc(F)cc2)c1)c1ccc(-c2ccccc2)cc1 + COC1C(OC(N)=O)C(O)C(Oc2ccc3c(O)c(NC(=O)c4ccc(O)c(CC=C(C)C)c4)c(=O)oc3c2C)OC1(C)C	3.80
10. COc1ccc([C@@H](O)c2cc(-c3ncnc4cc(N5CCOCC5)ccc34)c(F)cc2Cl)nn1 + COC1C(OC(N)=O)C(O)C(Oc2ccc3c(O)c(NC(=O)c4ccc(O)c(CC=C(C)C)c4)c(=O)oc3c2C)OC1(C)C	3.00
11. CC[C@@]1(O)C(=O)OCc2c1cc1n(c2=O)Cc2cc3c(CN(C)C)c(O)ccc3nc2-1 + COC1C(OC(N)=O)C(O)C(Oc2ccc3c(O)c(NC(=O)c4ccc(O)c(CC=C(C)C)c4)c(=O)oc3c2C)OC1(C)C	0.88

====

tested on: 817829-284-R-J1-PDC complex spheroid viability; test: Anticancer human tumor 817829-284-R-J1-PDC cell line growth inhibition [POLQ]; settings: curve of first compound; second compound 1 µM;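 also: spheroids exposed to compounds for 7 days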
API: label(entry) gives label 1 if the entry's IC50 is strictly smaller than 6000 nM; on equality or larger values it gives label 0.

1) Nc1ccn(C2OC(CO)C(O)C2(F)F)c(=O)n1 (stereo not given) + Nc1ccc(C#CCN(C(=O)Cc2ncc(C(F)(F)F)cc2C(F)(F)F)c2ccc(F)cc2)nn1	label 1
2) CC1COCCN1c1cc(-c2ccnn2C)c2ccnc(-c3ccn[nH]3)c2n1 (stereo not given) + COC1C(OC(N)=O)C(O)C(Oc2ccc3c(O)c(NC(=O)c4ccc(O)c(CC=C(C)C)c4)c(=O)oc3c2C)OC1(C)C	label 1
3) CCc1cc2c(N3CCc4c(cc(Cn5ccnc5)cc4-c4cn(C)nc4C(F)(F)F)C3=O)ccnc2c(OC)n1 + COC1C(OC(N)=O)C(O)C(Oc2ccc3c(O)c(NC(=O)c4ccc(O)c(CC=C(C)C)c4)c(=O)oc3c2C)OC1(C)C	label 1
4) O=C(Nc1ccc(O)c(NS(=O)(=O)c2ccc(F)cc2)c1)c1ccc(-c2ccccc2)cc1 + Cc1cccc(N(C)C(=O)C2C(O)CCN2c2nc(C)cc(C(F)(F)F)c2C#N)c1	label 0
5) C#Cc1c(F)ccc2cc(O)cc(-c3ncc4c(N5CC6CCC(C5)N6)nc(OCC56CCCN5CC(F)C6)nc4c3F)c12 (stereo not given) + COC1C(OC(N)=O)C(O)C(Oc2ccc3c(O)c(NC(=O)c4ccc(O)c(CC=C(C)C)c4)c(=O)oc3c2C)OC1(C)C	label 0
6) Nc1ccn(C2OC(CO)C(O)C2(F)F)c(=O)n1 (stereo not given) + Cc1cccc(N(C)C(=O)C2C(O)CCN2c2nc(C)cc(C(F)(F)F)c2C#N)c1	label 1
7) CCc1cc2c(N3CCc4c(cc(Cn5ccnc5)cc4-c4cn(C)nc4C(F)(F)F)C3=O)cc(C)nc2c(OC)n1 + Cc1cccc(N(C)C(=O)C2C(O)CCN2c2nc(C)cc(C(F)(F)F)c2C#N)c1	label 1
8) CCc1c2c(nc3ccc(O)cc13)-c1cc3c(c(=O)n1C2)COC(=O)[C@]3(O)CC + COC1C(OC(N)=O)C(O)C(Oc2ccc3c(O)c(NC(=O)c4ccc(O)c(CC=C(C)C)c4)c(=O)oc3c2C)OC1(C)C	label 1
9) CCc1cc2c(N3CCc4c(cc(Cn5ccnc5)cc4-c4cn(C)nc4C(F)(F)F)C3=O)cc(C)nc2c(OC)n1 + Nc1ccc(C#CCN(C(=O)Cc2ncc(C(F)(F)F)cc2C(F)(F)F)c2ccc(F)cc2)nn1	label 1

====

tested on: 817829-284-R-J1-PDC complex spheroid viability; assay: Anticancer human tumor 817829-284-R-J1-PDC cell line growth inhibition [POLQ]; details: second compound 0.316 µM; first compound 3.16 µM; active = viability on the fitted dose curve at most 10% of control; inactive = the rest;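 also: spheroids exposed to compounds for 7 days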
Classes used: Y = active, N = inactive

1. CC(C)n1c(=O)n(C)c2cnc3cc(F)c(-c4ccc(OCCCN5CCCCC5)nc4)cc3c21 + Cc1cccc(N(C)C(=O)C2C(O)CCN2c2nc(C)cc(C(F)(F)F)c2C#N)c1	N
2. Nc1ccn(C2OC(CO)C(O)C2(F)F)c(=O)n1 (stereo not drawn) + COC1C(OC(N)=O)C(O)C(Oc2ccc3c(O)c(NC(=O)c4ccc(O)c(CC=C(C)C)c4)c(=O)oc3c2C)OC1(C)C	Y
3. CCc1cc2c(N3CCc4c(cc(Cn5ccnc5)cc4-c4cn(C)nc4C(F)(F)F)C3=O)ccnc2c(OC)n1 + Cc1cccc(N(C)C(=O)C2C(O)CCN2c2nc(C)cc(C(F)(F)F)c2C#N)c1	N

====

system: 817829-284-R-J1-PDC complex spheroid viability; assay: Anticancer human tumor 817829-284-R-J1-PDC cell line growth inhibition [POLQ]; details: second compound 0.0316 µM; first compound 3.16 µM; stronger effect = lower value;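 also: spheroids exposed to compounds for 7 days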;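 as to viability, T/C: 100% = DMSO vehicle-treated spheroids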
API: label(entry) gives class 1 if the entry's viability, T/C is strictly smaller than 50%; on equality or larger values it gives class 0.

1. O=C(c1cc(Cc2n[nH]c(=O)c3ccccc23)ccc1F)N1CCN(C(=O)C2CC2)CC1 + Nc1ccc(C#CCN(C(=O)Cc2ncc(C(F)(F)F)cc2C(F)(F)F)c2ccc(F)cc2)nn1	class 0
2. CCCS(=O)(=O)Nc1ccc(F)c(C(=O)c2c[nH]c3ncc(-c4ccc(Cl)cc4)cc23)c1F + Nc1ccc(C#CCN(C(=O)Cc2ncc(C(F)(F)F)cc2C(F)(F)F)c2ccc(F)cc2)nn1	class 0
3. C#Cc1c(F)ccc2cc(O)cc(-c3ncc4c(N5CC6CCC(C5)N6)nc(OCC56CCCN5CC(F)C6)nc4c3F)c12 (stereo not given) + Cc1cccc(N(C)C(=O)C2C(O)CCN2c2nc(C)cc(C(F)(F)F)c2C#N)c1	class 0
4. CC1COCCN1c1cc(-c2ccnn2C)c2ccnc(-c3ccn[nH]3)c2n1 (stereo not given) + Nc1ccc(C#CCN(C(=O)Cc2ncc(C(F)(F)F)cc2C(F)(F)F)c2ccc(F)cc2)nn1	class 1
5. CC1COCCN1c1cc(C2(S(C)(=N)=O)CC2)nc(-c2ccnc3[nH]ccc23)n1 (stereo not given) + Nc1ccc(C#CCN(C(=O)Cc2ncc(C(F)(F)F)cc2C(F)(F)F)c2ccc(F)cc2)nn1	class 1
6. CCc1cc2c(N3CCc4c(cc(Cn5ccnc5)cc4-c4cn(C)nc4C(F)(F)F)C3=O)cc(C)nc2c(OC)n1 + COC1C(OC(N)=O)C(O)C(Oc2ccc3c(O)c(NC(=O)c4ccc(O)c(CC=C(C)C)c4)c(=O)oc3c2C)OC1(C)C	class 0
7. CC(C)n1c(=O)n(C)c2cnc3cc(F)c(-c4ccc(OCCCN5CCCCC5)nc4)cc3c21 + Cc1cccc(N(C)C(=O)C2C(O)CCN2c2nc(C)cc(C(F)(F)F)c2C#N)c1	class 0
8. O=c1[nH]cc(F)c(=O)[nH]1 + Cc1cccc(N(C)C(=O)C2C(O)CCN2c2nc(C)cc(C(F)(F)F)c2C#N)c1	class 1
9. CC1COCCN1c1cc(-c2ccnn2C)c2ccnc(-c3ccn[nH]3)c2n1 (stereo not given) + COC1C(OC(N)=O)C(O)C(Oc2ccc3c(O)c(NC(=O)c4ccc(O)c(CC=C(C)C)c4)c(=O)oc3c2C)OC1(C)C	class 1
10. CCc1cc2c(N3CCc4c(cc(Cn5ccnc5)cc4-c4cn(C)nc4C(F)(F)F)C3=O)cc(C)nc2c(OC)n1 + Nc1ccc(C#CCN(C(=O)Cc2ncc(C(F)(F)F)cc2C(F)(F)F)c2ccc(F)cc2)nn1	class 1
11. O=c1[nH]cc(F)c(=O)[nH]1 + COC1C(OC(N)=O)C(O)C(Oc2ccc3c(O)c(NC(=O)c4ccc(O)c(CC=C(C)C)c4)c(=O)oc3c2C)OC1(C)C	class 1
12. C#Cc1c(F)ccc2cc(O)cc(-c3ncc4c(N5CC6CCC(C5)N6)nc(OCC56CCCN5CC(F)C6)nc4c3F)c12 (stereo not given) + Nc1ccc(C#CCN(C(=O)Cc2ncc(C(F)(F)F)cc2C(F)(F)F)c2ccc(F)cc2)nn1	class 0
13. COc1cc2cc(C(=O)CCC(=O)O)sc2cc1OC + COC1C(OC(N)=O)C(O)C(Oc2ccc3c(O)c(NC(=O)c4ccc(O)c(CC=C(C)C)c4)c(=O)oc3c2C)OC1(C)C	class 0
14. CCCS(=O)(=O)Nc1ccc(F)c(C(=O)c2c[nH]c3ncc(-c4ccc(Cl)cc4)cc23)c1F + Cc1cccc(N(C)C(=O)C2C(O)CCN2c2nc(C)cc(C(F)(F)F)c2C#N)c1	class 1
15. O=C(Nc1ccc(O)c(NS(=O)(=O)c2ccc(F)cc2)c1)c1ccc(-c2ccccc2)cc1 + Cc1cccc(N(C)C(=O)C2C(O)CCN2c2nc(C)cc(C(F)(F)F)c2C#N)c1	class 0
16. COc1cccc2c1C(=O)c1c(O)c3c(c(O)c1C2=O)CC(O)(C(=O)CO)CC3OC1CC(N)C(O)C(C)O1 (stereo not given) + COC1C(OC(N)=O)C(O)C(Oc2ccc3c(O)c(NC(=O)c4ccc(O)c(CC=C(C)C)c4)c(=O)oc3c2C)OC1(C)C	class 1
17. C=CC(=O)N1CCN(c2nc(=O)n(-c3c(C)ccnc3C(C)C)c3nc(-c4c(O)cccc4F)c(F)cc23)C(C)C1 (stereo not given) + Nc1ccc(C#CCN(C(=O)Cc2ncc(C(F)(F)F)cc2C(F)(F)F)c2ccc(F)cc2)nn1	class 0
18. COc1cc(C2c3cc4c(cc3C(OC3OC5COC(C)OC5C(O)C3O)C3COC(=O)C23)OCO4)cc(OC)c1O (stereo not given) + Nc1ccc(C#CCN(C(=O)Cc2ncc(C(F)(F)F)cc2C(F)(F)F)c2ccc(F)cc2)nn1	class 1
19. CC1COCCN1c1cc(C2(S(C)(=N)=O)CC2)nc(-c2ccnc3[nH]ccc23)n1 (stereo not given) + Cc1cccc(N(C)C(=O)C2C(O)CCN2c2nc(C)cc(C(F)(F)F)c2C#N)c1	class 1
